- Tested on: Candida albicans
- measurement.protocol: Antifungal activity against Candida albicans ATCC 24433 after 48 to 72 hrs by microdilution method
- Assay type: functional

compound: CC(C)CCC[C@@H](C)[C@H]1CC[C@H]2[C@@H]3C[C@@H](Br)[C@@]4(Br)C[C@@H](OC(=O)CCCCCCCCC(Br)CBr)CC[C@]4(C)[C@H]3CC[C@]12C (stereo partly drawn)
system.under.test: Candida albicans
units.of.measure: µg/mL
MIC: 4

compound: C=CCCCCCCCCC(=O)O[C@H]1CC[C@@]2(C)C(=CC[C@H]3[C@@H]4CC[C@H]([C@H](C)CCCC(C)C)[C@@]4(C)CC[C@@H]32)C1
system.under.test: Candida albicans
units.of.measure: µg/mL
MIC: 2

compound: CC(C)CCC[C@@H](C)[C@H]1CC[C@H]2[C@@H]3CC=C4C[C@@H](OC(=O)CCCCCCCCC5CO5)CC[C@]4(C)[C@H]3CC[C@]12C (stereo partly drawn)
system.under.test: Candida albicans
units.of.measure: µg/mL
MIC: 1
